- Tested On: STAT3 (Homo sapiens)
- Construct: plasmid pSTAT3-TA-luc), which contains a stably operating STAT3 promoter; endogenous in cells
- Sequence (P40763 whole entry): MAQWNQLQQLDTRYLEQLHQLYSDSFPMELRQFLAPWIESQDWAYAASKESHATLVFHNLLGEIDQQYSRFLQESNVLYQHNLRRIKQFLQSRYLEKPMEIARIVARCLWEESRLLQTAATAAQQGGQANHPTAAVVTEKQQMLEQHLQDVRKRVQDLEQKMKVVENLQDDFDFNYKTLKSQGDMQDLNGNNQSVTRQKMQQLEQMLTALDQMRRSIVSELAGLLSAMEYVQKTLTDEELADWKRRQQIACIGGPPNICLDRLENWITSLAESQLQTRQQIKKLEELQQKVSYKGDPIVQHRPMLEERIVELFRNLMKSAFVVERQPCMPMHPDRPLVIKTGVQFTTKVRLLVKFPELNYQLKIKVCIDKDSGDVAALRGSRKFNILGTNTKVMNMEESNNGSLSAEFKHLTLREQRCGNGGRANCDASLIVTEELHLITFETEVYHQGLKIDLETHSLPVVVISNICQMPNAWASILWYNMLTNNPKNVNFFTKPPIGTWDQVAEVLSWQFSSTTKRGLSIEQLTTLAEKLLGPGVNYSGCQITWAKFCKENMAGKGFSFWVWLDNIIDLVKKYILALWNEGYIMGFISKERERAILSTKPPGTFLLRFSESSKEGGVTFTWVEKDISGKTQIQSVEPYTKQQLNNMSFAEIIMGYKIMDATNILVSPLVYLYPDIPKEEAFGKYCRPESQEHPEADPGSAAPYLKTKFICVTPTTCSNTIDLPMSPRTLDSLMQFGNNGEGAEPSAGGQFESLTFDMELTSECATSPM
- Assay Name: STAT3 reporter gene assay (luciferase), LNCaP stable cell line (pSTAT3-TA-luc), IL-6 stimulation
- Assay type: cell-based
Observed Property: IC50 (µM)

Please review the following examples before continuing.
COc1cc(OC(F)(F)F)cc(C(C)(C)c2cc(Cl)cc(NC(=O)c3cc4ccc(NS(C)(=O)=O)cc4[nH]3)c2)c1 ... 0.051
CS(=O)(=O)Nc1ccc2oc(C(=O)Nc3cc(Br)cc(-c4ccc(F)cc4F)c3)cc2c1 ... 0.28

P: Cc1ccc(C(C)(C)c2cc(Cl)cc(NC(=O)c3cc4cc(NS(C)(=O)=O)ccc4s3)c2)s1
Q: COc1cc(OC(F)(F)F)cc(C(C)(C)c2cc(NC(=O)c3cc4cc(NS(C)(=O)=O)ccc4s3)cc(Cl)n2)c1
R: O=C(Nc1cccc(-c2ccccc2C(F)(F)F)c1)c1cc2ccc([N+](=O)[O-])cc2[nH]1
**Query** Output the entries ranked by IC50 from maximum down to minimum. Please write the labels in the order that was asked for.
**Result** R, Q, P
(R: 6.3 µM, Q: 0.07 µM, P: 0.025 µM)

I: CS(=O)(=O)Nc1ccc2cc(C(=O)Nc3cc(-c4ccc(F)cc4F)cc(N4CCCCC4)c3)[nH]c2c1
II: CS(=O)(=O)Nc1ccc2cc(C(=O)Nc3cccc(C(F)(F)c4ccccn4)c3)[nH]c2c1
**Query** Between the entries labeled I and II , whose measured IC50 is lower? Your answer should be the label attached to the chosen record.
**Result** I

1: CC(C)Oc1cc(N2CCCC2)cc(C(C)(C)c2cc(Cl)cc(NC(=O)c3cc4cc(NS(C)(=O)=O)ccc4s3)c2)c1
2: CS(=O)(=O)Nc1cc2cc(C(=O)Nc3cc(Cl)cc(Oc4ccc(Cl)cc4)c3)sc2cc1Cl
**Query** Select the item whose IC50 value is smaller, choosing between 1 and 2 . Please reply using the label of the selected record.
**Result** 2
(2: 0.024 µM, 1: 0.073 µM)

1: CC(C)(c1cc(Cl)cc(NC(=O)c2cc3cc(NS(C)(=O)=O)ccc3s2)c1)c1cc(OCC(F)(F)F)cc(OC(F)(F)F)c1
2: CC(C)(c1cc(F)cc(NC(=O)c2cc3cc(NS(C)(=O)=O)ccc3s2)c1)c1cc(CN2CCOCC2)cc(OC(F)(F)C(F)F)c1
**Query** Please let me know which one, 1 or 2 , has a lower measured IC50 value. Record your answer as the label of the chosen record.
**Result** 1
(1: 0.015 µM, 2: 0.09 µM)

I: CC(C)Oc1cc(OC(F)(F)F)cc(N(C)c2cc(Cl)cc(NC(=O)c3cc4cc(NS(C)(=O)=O)ccc4s3)c2)c1
II: CC(C)(c1cc(Cl)cc(NC(=O)c2cc3cc(NS(C)(=O)=O)ccc3s2)c1)c1cc(OCC#N)cc(OC(F)(F)F)c1
**Query** Pick the one with the larger IC50: I vs II // return label of chosen record
**Result** II
(II: 0.12 µM, I: 0.065 µM)

---

- Tested on: LNCaP
- Assay Name: Cell growth inhibition assay, prostate cancer cell line LNCaP (medium with 10 ng/mL IL-6)
- Assay type: cell-based
- Settings: Homo sapiens, medium supplemented with 10 ng/mL of IL-6, 10,000 cells/well
Observed Property: IC50 (µM)

CC(C)(c1ccc(F)cc1)c1cc(Cl)cc(NC(=O)c2cc3ccc(NS(C)(=O)=O)cc3[nH]2)c1 ... 0.9
CC(C)(c1cc(Cl)cc(NC(=O)c2cc3cc(NS(C)(=O)=O)ccc3s2)c1)c1cc(OC2CC2)cc(OC(F)(F)F)c1 ... 0.039
CC(C)Oc1cc(N2CCCC2)cc(C(C)(C)c2cc(Cl)cc(NC(=O)c3cc4cc(NS(C)(=O)=O)ccc4s3)c2)c1 ... 0.022
CS(=O)(=O)Nc1ccc2sc(C(=O)Nc3cc(Cl)cc(Oc4cc(Cl)cc(C#N)c4)c3)cc2c1 ... 0.33

a: C=C(c1ccccc1)c1cccc(NC(=O)c2cc3cc(NS(C)(=O)=O)ccc3s2)c1
b: CC(C)(C)OC(=O)n1cccc1-c1cc(NC(=O)c2cc3ccc(NS(C)(=O)=O)cc3[nH]2)cc(-c2ccc(F)cc2F)c1
c: CS(=O)(=O)Nc1ccc2cc(C(=O)Nc3cc(-c4ccc(F)cc4F)cc(-c4ccc(F)cc4F)c3)[nH]c2c1
d: C#Cc1cc(NC(=O)c2cc3cc(NS(C)(=O)=O)ccc3s2)cc(C(C)(C)c2ccc(F)cc2F)c1
**Query** Please list the entries, largest IC50 first. Answer format: the labels, in the requested order.
**Result** b, c, a, d
